System: bone marrow-derived human mesenchymal stem cells (hMSCs)
Assay: Viability of hMSCs after preservation in test isotonic liquid, trypan blue staining method
Type: cell-based
Conditions: hMSCs preserved at 4° C. for 2 days; n=3; Pre 94.7±2.1
Measured endpoint: Cell viability (%) (Mean ± Standard deviation [SD])

[[record]]
molecule = "OC[C@H]1O[C@H](OC[C@H]2O[C@H](OC[C@H]3O[C@H](O[C@]4(CO)O[C@H](CO)[C@@H](O)[C@@H]4O)[C@H](O)[C@@H](O)[C@@H]3O)[C@H](O)[C@@H](O)[C@H]2O)[C@H](O)[C@@H](O)[C@H]1O"
reported_result = "cell viability increased"

[[record]]
molecule = "C[C@H]1O[C@H](O[C@H]2[C@H](O)[C@@H](O)[C@@H](O[C@H]3[C@H](O)[C@@H](O)C(O)O[C@@H]3CO)O[C@@H]2CO)[C@H](O)[C@@H](O)[C@@H]1N[C@H]1C=C(CO)[C@@H](O)[C@H](O)[C@H]1O (stereo partly shown)"
reported_result = "cell viability increased"


Data credit: patent US20210345602A1
